Qpatch Emax: recorded values
Target: human CaV1.2 (Homo sapiens)
Construct: expressed in transfected cells; host or cells: Flp-In 293 T-Rex (HEK293), monoclonal CaV1.2-HEK293(AUX) clone 2-19B; doxycycline-induced auxiliary subunits
Test: Sophion QPatch dose-response assay, whole-cell voltage clamp of barium currents in CaV1.2-HEK293(AUX) cells
Type: cell-based
Conditions: Table 9; maximal fold change of peak inward current; n = 1 unless * n = 2
observable: Qpatch Emax

compound | system-name | observed-value
COC(=O)C1=C(CF)NC2=C(C(=O)OC2)[C@H]1c1cc(F)cc(F)c1[C@H](C)F (single isomer, unassigned) [Example 5] | human CaV1.2 (Homo sapiens) | 1.9
COC(=O)C1=C(CF)NC2=C(C(=O)CC2)[C@H]1c1cccc(F)c1[C@@H](F)CF (single isomer, unassigned) [Example 7] | human CaV1.2 (Homo sapiens) | 1.8
COC(=O)C1=C(CF)NC2=C(C(=O)OC2)[C@H]1c1cccc(F)c1[C@H]1CC1(F)F (single isomer, unassigned) [Example 1] | human CaV1.2 (Homo sapiens) | 1.9
COC(=O)C1=C(CF)NC2=C(C(=O)OC2)[C@H]1c1cc(F)ccc1C(F)(F)F (single isomer, unassigned) [Example 23] | human CaV1.2 (Homo sapiens) | 3.5
COC(=O)C1=C(CF)NC2=C(C(=O)OC2)[C@H]1c1cc(F)cc(F)c1CC(F)F (single isomer, unassigned) [Example 12] | human CaV1.2 (Homo sapiens) | 2.3
COC(=O)C1=C(CF)NC2=C(C(=O)OC2)[C@H]1c1cc(F)cc(F)c1[C@H]1CC1(F)F (single isomer, unassigned) [Example 4] | human CaV1.2 (Homo sapiens) | 1.9
COC(=O)C1=C(CF)NC2=C(C(=O)OC2)[C@H]1c1cc(F)cc(F)c1C(F)(F)F (single isomer, unassigned) [Example 10] | human CaV1.2 (Homo sapiens) | 1.8
COC(=O)C1=C(CF)NC2=C(C(=O)CC2)[C@H]1c1cccc(F)c1[C@@H](C)F (single isomer, unassigned) [Example 27] | human CaV1.2 (Homo sapiens) | 1.5
COC(=O)C1=C(CF)NC2=C(C(=O)OC2)[C@H]1c1ccccc1C1CC1 (single isomer, unassigned) [Example 22] | human CaV1.2 (Homo sapiens) | 2.8
COC(=O)C1=C(CF)NC2=C(C(=O)CC2)[C@H]1c1cc(F)cc(F)c1C1CC1 (single isomer, unassigned) [Example 14] | human CaV1.2 (Homo sapiens) | 1.9
COC(=O)C1=C(CF)NC2=C(C(=O)OC2)[C@H]1c1cccc(F)c1C(F)(F)F (single isomer, unassigned) [Example 17] | human CaV1.2 (Homo sapiens) | 1.2
COC(=O)C1=C(CF)NC2=C(C(=O)OC2)[C@H]1c1cccc(F)c1OC(F)F (single isomer, unassigned) [Example 19] | human CaV1.2 (Homo sapiens) | 1.8
COC(=O)C1=C(CF)NC2=C(C(=O)OC2)[C@H]1c1cccc(F)c1C1CC1 (single isomer, unassigned) [Example 2] | human CaV1.2 (Homo sapiens) | 2.3

---

Molecular target: human CaV1.2 (Homo sapiens, UniProt Q13936)
Construct: expressed in transfected cells; host or cells: Flp-In 293 T-Rex (HEK293), monoclonal CaV1.2-HEK293(AUX) clone 2-19B; doxycycline-induced auxiliary subunits
Sequence (Q13936 1-2138 isoform Q13936-23): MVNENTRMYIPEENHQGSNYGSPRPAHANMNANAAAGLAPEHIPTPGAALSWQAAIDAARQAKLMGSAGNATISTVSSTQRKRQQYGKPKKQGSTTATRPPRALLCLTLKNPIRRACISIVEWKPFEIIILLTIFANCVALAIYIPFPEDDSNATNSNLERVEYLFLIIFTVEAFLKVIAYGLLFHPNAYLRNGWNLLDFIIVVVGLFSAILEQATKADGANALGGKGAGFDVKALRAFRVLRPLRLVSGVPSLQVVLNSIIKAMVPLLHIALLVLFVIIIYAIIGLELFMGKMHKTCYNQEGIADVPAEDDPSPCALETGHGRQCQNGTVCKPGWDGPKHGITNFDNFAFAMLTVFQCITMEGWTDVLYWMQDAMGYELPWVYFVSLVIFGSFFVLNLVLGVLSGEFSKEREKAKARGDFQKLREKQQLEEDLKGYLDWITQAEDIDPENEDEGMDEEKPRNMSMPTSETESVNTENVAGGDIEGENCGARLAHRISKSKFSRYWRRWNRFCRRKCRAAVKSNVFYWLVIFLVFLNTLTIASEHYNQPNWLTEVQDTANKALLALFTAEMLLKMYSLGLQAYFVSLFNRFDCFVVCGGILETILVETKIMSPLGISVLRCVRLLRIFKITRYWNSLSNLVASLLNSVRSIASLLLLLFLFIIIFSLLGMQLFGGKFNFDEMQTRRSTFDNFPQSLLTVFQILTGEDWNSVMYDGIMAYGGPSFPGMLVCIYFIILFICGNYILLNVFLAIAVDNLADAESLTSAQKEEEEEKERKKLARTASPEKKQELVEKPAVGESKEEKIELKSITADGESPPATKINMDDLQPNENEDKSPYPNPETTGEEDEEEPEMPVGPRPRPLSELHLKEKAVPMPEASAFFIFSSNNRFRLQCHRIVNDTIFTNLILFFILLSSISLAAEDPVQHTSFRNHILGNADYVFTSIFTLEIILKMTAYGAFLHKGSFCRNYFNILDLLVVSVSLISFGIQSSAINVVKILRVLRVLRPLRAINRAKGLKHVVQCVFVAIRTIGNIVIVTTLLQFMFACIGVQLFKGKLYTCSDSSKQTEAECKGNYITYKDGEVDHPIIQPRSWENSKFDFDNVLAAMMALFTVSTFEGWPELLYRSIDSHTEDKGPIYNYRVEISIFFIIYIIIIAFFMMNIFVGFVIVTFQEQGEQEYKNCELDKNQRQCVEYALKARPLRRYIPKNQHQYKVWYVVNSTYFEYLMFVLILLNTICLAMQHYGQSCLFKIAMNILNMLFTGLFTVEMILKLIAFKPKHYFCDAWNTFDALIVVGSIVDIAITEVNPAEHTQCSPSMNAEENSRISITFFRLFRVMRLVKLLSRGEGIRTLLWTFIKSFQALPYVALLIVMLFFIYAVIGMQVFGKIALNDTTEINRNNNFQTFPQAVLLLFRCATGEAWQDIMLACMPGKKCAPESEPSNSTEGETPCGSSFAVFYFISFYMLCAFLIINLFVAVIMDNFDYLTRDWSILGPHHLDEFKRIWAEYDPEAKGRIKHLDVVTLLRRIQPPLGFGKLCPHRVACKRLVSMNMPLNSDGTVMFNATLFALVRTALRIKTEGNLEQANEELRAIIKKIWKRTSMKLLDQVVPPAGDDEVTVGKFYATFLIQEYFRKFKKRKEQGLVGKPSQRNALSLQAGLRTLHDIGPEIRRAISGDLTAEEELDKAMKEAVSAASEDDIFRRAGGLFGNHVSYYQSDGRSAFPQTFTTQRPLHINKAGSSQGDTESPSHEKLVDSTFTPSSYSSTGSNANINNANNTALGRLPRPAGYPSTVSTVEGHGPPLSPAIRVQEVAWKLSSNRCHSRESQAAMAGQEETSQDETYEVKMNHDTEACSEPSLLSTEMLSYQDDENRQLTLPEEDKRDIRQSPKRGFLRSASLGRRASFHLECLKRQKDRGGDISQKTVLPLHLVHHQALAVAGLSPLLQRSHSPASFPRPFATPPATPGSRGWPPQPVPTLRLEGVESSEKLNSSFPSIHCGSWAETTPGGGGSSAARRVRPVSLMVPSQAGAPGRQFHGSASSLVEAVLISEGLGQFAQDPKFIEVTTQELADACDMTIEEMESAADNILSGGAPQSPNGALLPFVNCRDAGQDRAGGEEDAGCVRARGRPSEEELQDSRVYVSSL
Sequence (Q9NY47 19-1001 partner limits assumed): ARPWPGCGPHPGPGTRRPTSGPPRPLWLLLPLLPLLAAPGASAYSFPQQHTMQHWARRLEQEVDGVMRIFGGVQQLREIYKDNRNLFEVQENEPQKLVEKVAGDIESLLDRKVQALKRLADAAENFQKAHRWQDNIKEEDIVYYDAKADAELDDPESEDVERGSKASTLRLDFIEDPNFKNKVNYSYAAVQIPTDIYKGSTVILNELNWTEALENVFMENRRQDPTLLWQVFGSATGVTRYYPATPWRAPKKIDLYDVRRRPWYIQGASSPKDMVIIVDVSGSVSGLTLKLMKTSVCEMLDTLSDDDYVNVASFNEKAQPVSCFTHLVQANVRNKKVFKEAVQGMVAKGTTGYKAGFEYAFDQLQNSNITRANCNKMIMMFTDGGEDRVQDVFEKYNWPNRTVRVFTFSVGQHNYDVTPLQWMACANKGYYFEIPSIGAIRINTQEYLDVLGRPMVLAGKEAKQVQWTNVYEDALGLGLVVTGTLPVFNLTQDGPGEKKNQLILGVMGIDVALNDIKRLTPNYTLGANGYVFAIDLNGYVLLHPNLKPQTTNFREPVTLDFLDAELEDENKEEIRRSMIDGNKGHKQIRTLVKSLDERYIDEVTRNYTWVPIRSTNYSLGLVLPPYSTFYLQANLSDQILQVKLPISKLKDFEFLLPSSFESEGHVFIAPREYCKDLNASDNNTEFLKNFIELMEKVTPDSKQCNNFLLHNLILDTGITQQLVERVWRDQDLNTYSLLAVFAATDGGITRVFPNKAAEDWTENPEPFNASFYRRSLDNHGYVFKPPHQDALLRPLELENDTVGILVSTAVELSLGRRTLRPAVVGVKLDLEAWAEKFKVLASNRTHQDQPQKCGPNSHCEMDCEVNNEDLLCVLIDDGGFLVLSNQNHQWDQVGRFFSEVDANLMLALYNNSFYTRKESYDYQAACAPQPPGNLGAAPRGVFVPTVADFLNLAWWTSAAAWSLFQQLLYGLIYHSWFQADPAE
Sequence (Q9NY47 1002-1150 partner limits assumed): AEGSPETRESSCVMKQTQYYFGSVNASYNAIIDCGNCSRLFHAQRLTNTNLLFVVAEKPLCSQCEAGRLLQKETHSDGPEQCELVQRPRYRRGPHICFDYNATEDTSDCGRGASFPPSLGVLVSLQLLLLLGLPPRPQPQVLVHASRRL
Sequence (Q08289 whole entry partner): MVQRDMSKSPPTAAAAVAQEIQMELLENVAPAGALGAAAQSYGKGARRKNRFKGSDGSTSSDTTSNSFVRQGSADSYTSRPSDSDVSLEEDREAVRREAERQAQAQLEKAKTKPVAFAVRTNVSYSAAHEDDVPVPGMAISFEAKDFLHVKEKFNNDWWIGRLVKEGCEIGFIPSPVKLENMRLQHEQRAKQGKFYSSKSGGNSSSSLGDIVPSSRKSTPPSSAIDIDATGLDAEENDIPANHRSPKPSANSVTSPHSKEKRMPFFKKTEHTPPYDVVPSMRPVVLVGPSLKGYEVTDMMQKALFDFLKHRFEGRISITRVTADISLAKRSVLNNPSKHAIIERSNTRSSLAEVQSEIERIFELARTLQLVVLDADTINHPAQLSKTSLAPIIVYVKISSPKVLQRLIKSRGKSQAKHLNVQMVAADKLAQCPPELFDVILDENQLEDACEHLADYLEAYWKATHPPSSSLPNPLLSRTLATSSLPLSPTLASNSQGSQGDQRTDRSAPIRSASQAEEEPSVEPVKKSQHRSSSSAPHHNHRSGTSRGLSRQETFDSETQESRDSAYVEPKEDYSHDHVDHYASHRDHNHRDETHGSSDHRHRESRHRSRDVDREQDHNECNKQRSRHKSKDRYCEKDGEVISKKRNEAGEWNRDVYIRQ
Assay: Sophion QPatch dose-response assay, whole-cell voltage clamp of barium currents in CaV1.2-HEK293(AUX) cells
Assay type: cell-based
Conditions: Table 9; maximal fold change of peak inward current; n = 1 unless * n = 2
// reported Qpatch Emax for each item listed
observable: Qpatch Emax

compound | observed-value
COC(=O)C1=C(CF)NC2=C(C(=O)CC2)[C@H]1c1cccc(F)c1C1CC1 (single isomer, unassigned) | 1.9
COC(=O)C1=C(CF)NC2=C(C(=O)OC2)[C@H]1c1cccc(F)c1[C@@H](C)F (single isomer, unassigned) | 2.0
COC(=O)C1=C(C(F)F)NC2=C(C(=O)OC2)[C@H]1c1cccc(F)c1[C@@H](C)F (single isomer, unassigned) | 1.6
COC(=O)C1=C(CF)NC2=C(C(=O)CC2)[C@H]1c1cccc(F)c1CC(F)(F)F (single isomer, unassigned) | 1.7
COC(=O)C1=C(CF)NC2=C(C(=O)OC2)[C@H]1c1ccccc1OC(F)F (single isomer, unassigned) | 1.5
COC(=O)C1=C(CF)NC2=C(C(=O)OC2)[C@H]1c1cc(F)ccc1C1CC1 (single isomer, unassigned) | 2.8
COC(=O)C1=C(CF)NC2=C(C(=O)OC2)[C@H]1c1cc(F)cc(F)c1C(F)F (single isomer, unassigned) | 1.8
COC(=O)C1=C(CF)NC2=C(C(=O)OC2)[C@H]1c1cccc(F)c1CC(F)F (single isomer, unassigned) | 2.0
COC(=O)C1=C(CF)NC2=C(C(=O)OC2)[C@H]1c1cc(F)cc(F)c1[C@H](F)CF (single isomer, unassigned) | 1.5
COC(=O)C1=C(CF)NC2=C(C(=O)CC2)[C@H]1c1cc(F)cc(F)c1[C@H](C)F (single isomer, unassigned) | 1.4
COC(=O)C1=C(CF)NC2=C(C(=O)OC2)[C@H]1c1cc(F)cc(F)c1[C@H]1CC1(F)F (single isomer, unassigned) [Example 3] | 1.6
CCc1ccccc1[C@H]1C(C(=O)OC)=C(CF)NC2=C1C(=O)OC2 (single isomer, unassigned) | 1.8
COC(=O)C1=C(CF)NC2=C(C(=O)CC2)[C@H]1c1cccc(F)c1CC(F)F (single isomer, unassigned) | 2.0
COC(=O)C1=C(CF)NC2=C(C(=O)OC2)[C@H]1c1cccc(F)c1C(F)F (single isomer, unassigned) | 1.3
COC(=O)C1=C(CF)NC2=C(C(=O)OC2)[C@H]1c1cc(F)ccc1OC(F)F (single isomer, unassigned) | 3.0
